The origin of these recorded values is PubChem BioAssay (NCI).

Catalogue of TGI readings, one per entry.
- Test system: PC-3 prostate
- assay_procedure: NCI tumour cell line growth inhibition, 48 h

# molecule, TGI
data = [
    ("CCc1cccc(CC)c1/C=C/c1cncc(C(=O)NC)c1", "> 25 µM"),
    ("Cc1ccc2c(c1)CC1(C2=O)[C@H](c2ccccc2)C2C(=O)c3ccc(C)cc3C2[C@H]1c1ccccc1 (stereo partly specified)", "> 100 µM"),
    ("c1ccc(CC(NCCNC(Cc2ccccc2)c2ccccc2)c2ccccc2)cc1 (stereo unspecified)", "1.78 µM"),
    ("Cc1cc(S(=O)(=O)O)c(NC(=O)c2oc3cc(O)ccc3c(=O)c2C)cc1Cl", "> 100 µM"),
    ("COc1ccc(/C=C2\\CCC(CNc3ccc(Br)cc3)C2=O)cc1 (stereo unspecified)", "> 100 µM"),
    ("C=C1CC(Cn2cc(Br)c(=O)[nH]c2=O)(c2ccc(-c3ccccc3)cc2)OC1=O (stereo unspecified)", "3.31 µM"),
    ("COc1ccc2c(c1)nc1n2C(c2ccc(F)cc2)SC1 (stereo unspecified)", "> 100 µM"),
    ("O=C(O)C1C2C=CC(O2)C1C(=O)Nc1ncccn1 (stereo unspecified)", "> 100 µM"),
]

Could you now consider this next molecule?
[ask] Given `CC(C)(C)c1c(C(C)(C)C)c(=O)c1=O` , state its recorded TGI.
[reply] > 100 µM

* * *

Catalogue of TGI readings, one per entry.
- Tested on: 786-0 renal
- assay_procedure: NCI tumour cell line growth inhibition, 48 h

# compound, experimental_value
measured = [
    ("COC(=O)CC(NC(=O)OCc1ccccc1)C(C(=O)OCc1ccccc1)C1(C)OCCO1 (stereo not given)", "> 100 µM"),
]

[ask] # returns recorded TGI (system: 786-0 renal) for c1ccc(CC(NCCNC(Cc2ccccc2)c2ccccc2)c2ccccc2)cc1 (stereo not given)
[reply] 1.59 µM

[ask] # returns recorded TGI (system: 786-0 renal) for `COC1=CC(=O)C2=C(C1=O)[C@H]1CC[C@]3(C)[C@@H](OC(C)=O)CC[C@H]3[C@@H]1CC2`
[reply] > 100 µM

[ask] # returns recorded TGI (system: 786-0 renal) for `c1ccc(NC[Si]23OCCN(CCO2)CCO3)cc1`
[reply] > 100 µM

[ask] # returns recorded TGI (system: 786-0 renal) for `O=C(Nc1ccccc1O)c1ccc(CNC(=O)c2ccsc2Nc2ccnc(C(F)(F)F)c2)cc1`
[reply] 5.34 µM

[ask] # returns recorded TGI (system: 786-0 renal) for `NS(=O)(=O)c1cc(S(N)(=O)=O)c(NC(=O)N(c2ccccc2)c2ccccc2)c(Cl)c1Cl`
[reply] > 100 µM

[ask] # returns recorded TGI (system: 786-0 renal) for CC(C)CCCC(C)[C@H]1CC[C@H]2N=C(Nc3ccccc3)CCC[C@]12C (stereo not given in full)
[reply] 3.45 µM

[ask] # returns recorded TGI (system: 786-0 renal) for `Cc1cc2occ(-c3ccc(Cl)cc3)c2c(=O)o1`
[reply] > 100 µM

[ask] # returns recorded TGI (system: 786-0 renal) for CC1(C)COC(c2c(-c3ccccc3)noc2CS(=O)c2ccccc2)=N1 (stereo not given)
[reply] > 100 µM

[ask] # returns recorded TGI (system: 786-0 renal) for COC(=O)C1(F)C(=O)NC(=O)NC1OC (stereo not given)
[reply] > 100 µM

[ask] # returns recorded TGI (system: 786-0 renal) for C[C@@]12CCCC(=O)N1[C@@H](CO)C(c1ccccc1)O2 (stereo not given in full)
[reply] > 100 µM

[ask] # returns recorded TGI (system: 786-0 renal) for `COc1cc(O)c(C(C)=O)c(O)c1`
[reply] > 100 µM

[ask] # returns recorded TGI (system: 786-0 renal) for `CC(C)(C)CC(C)(C)c1ccc(OCCOCC[N+](C)(C)Cc2ccccc2)cc1`
[reply] 24.4 µM

[ask] # returns recorded TGI (system: 786-0 renal) for `NC(=O)C(=O)n1ncc(Cl)c(Cl)c1=O`
[reply] 58.5 µM

[ask] # returns recorded TGI (system: 786-0 renal) for `Cn1cnc([N+](=O)[O-])c1Sc1nc(N)nc2nc[nH]c12`
[reply] > 100 µM

[ask] # returns recorded TGI (system: 786-0 renal) for `C[N+](C)=c1nc(N2CCOCC2)ss1`
[reply] > 100 µM

[ask] # returns recorded TGI (system: 786-0 renal) for CCOC(=O)C[C@@]12CCCNC1(C)CCc1ccccc12 (stereo not given in full)
[reply] > 100 µM

[ask] # returns recorded TGI (system: 786-0 renal) for `CC(=O)Nc1ccc(C(=O)N2N=C(C)/C(=C/c3ccc(O)cc3)C2=O)cc1`
[reply] > 100 µM

[ask] # returns recorded TGI (system: 786-0 renal) for `CCC(=O)c1cc([N+](=O)[O-])c(Br)s1`
[reply] 26.6 µM

[ask] # returns recorded TGI (system: 786-0 renal) for `Fc1cc(-c2nnc3n2N=C(c2ccc(Cl)cc2Cl)CS3)c(Cl)cc1Cl`
[reply] > 100 µM
